Cited source: PubChem BioAssay AID743279

- measurementProtocol: qHTS for Inhibitors of Inflammasome Signaling: IL-1-beta AlphaLISA Primary Screen
- testParameters: THP-1 LPS/ATP IL-1B secretion, 16 h; at 57.5 µM, active compounds read low
The whole screen tested about 360,000 compounds, of which about 17,000 (4.7%) were called active. Inconclusive results (about 5%) are left out. The full list was thinned out, with actives kept by preference.
activity change less than -30% is Met; activity change greater than or equal to -30% is Not met.

{"molecule": "CC(=O)c1cccc(-c2ccc(CN3C(CC(C)C)C(=O)N(Cc4cn(CC5CCCCC5)nn4)CCS3(=O)=O)cc2)c1 (stereo unspecified)", "labelClass": "Not met"}
{"molecule": "OCCNc1nc2ccccc2n1-c1ncnc2sc3c(c12)CCC3", "labelClass": "Not met"}
{"molecule": "CCOC(=O)c1ccc2[nH]c(C)c(CN3CCN(C)CC3)c(=O)c2c1", "labelClass": "Not met"}
{"molecule": "OCC(O)C1OCOC(C(O)CO)C1O (stereo unspecified)", "labelClass": "Not met"}
{"molecule": "CN(CC(=O)NCc1ccc2c(c1)OCO2)CC(=O)Nc1ccc(F)c(F)c1F", "labelClass": "Not met"}
{"molecule": "CN1CCN(C2Cc3ccc(Cl)cc3Sc3ccc(F)cc32)CC1 (stereo unspecified)", "labelClass": "Met"}
{"molecule": "Cn1nc(-c2ccccc2)c2cc([N+](=O)[O-])ccc21", "labelClass": "Not met"}
{"molecule": "Cc1cccc(OP(=O)(Nc2c(C)n(C)n(-c3ccccc3)c2=O)Oc2cccc(C)c2)c1", "labelClass": "Not met"}

Is activity change strictly under -30% for the entry Cc1cc(C)c(-c2c(O)c3ccccc3n(C)c2=O)c(C)c1 ? Not met

Another molecule: Cn1c(=O)c([N+](=O)[O-])c(Oc2ccccc2)c2ccccc21 Met
